Test system: 931267-113-T-J1-PDC KRAS spheroid with HUVEC/MSC, viability
Assay: Anticancer human tumor 931267-113-T-J1-PDC patient-derived colon adenocarcinoma cell line growth inhibition [KRAS2]; active = viability on the fitted dose curve at most 10% of control; inactive = the rest
Settings: second compound 3.16 µM; first compound 0.0316 µM
// classify into 1 (yes) = active, 0 (no) = inactive

Outcome? CCN1CCN(Cc2ccc(Nc3ncc(F)c(-c4cc(F)c5nc(C)n(C(C)C)c5c4)n3)nc2)CC1 + C=CC(=O)N1CCN(c2nc(OCC3CCCN3C)nc3c2CCN(c2cccc4cccc(C)c24)C3)CC1CC#N
1 (yes)

What did the test return for COc1cc(Nc2ncc3c(n2)-c2ccc(Cl)cc2C(c2c(F)cccc2OC)=NC3)ccc1C(=O)O + CNCc1ccccc1-c1csc(C(C)Nc2nc(C)nc3cc(OC)c(OC)cc23)c1 ?
1 (yes)

For this molecule, state the assay outcome: COc1cc2nccc(Oc3ccc(NC(=O)C4(C(=O)Nc5ccc(F)cc5)CC4)cc3)c2cc1OC + C=CC(=O)N1CCN(c2nc(=O)n(-c3c(C)ccnc3C(C)C)c3nc(-c4c(O)cccc4F)c(F)cc23)C(C)C1
0 (no)

Could you kindly confirm the outcome this assay logged for Cn1nccc1Nc1nccc(-c2cc3c(s2)C(C)(C)N(CCN2CCOCC2)C3=O)n1 + C=CC(=O)N1CCN(c2nc(OCC3CCCN3C)nc3c2CCN(c2cccc4cccc(C)c24)C3)CC1CC#N ?
1 (yes)

Called result for CC1(C)CCC(CN2CCN(c3ccc(C(=O)NS(=O)(=O)c4ccc(NCC5CCOCC5)c([N+](=O)[O-])c4)c(Oc4cnc5[nH]ccc5c4)c3)CC2)=C(c2ccc(Cl)cc2)C1 + CC1OCC2(CCN(c3cnc(Sc4ccnc(N)c4Cl)c(N)n3)CC2)C1N
0 (no)

###

Test system: 931267-113-T-J1-PDC KRAS spheroid with HUVEC/MSC, viability
Assay: Anticancer human tumor 931267-113-T-J1-PDC cell line growth inhibition [KRAS2];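 note: compound exposure lasted 7 days before the readout; 100% = DMSO vehicle control viability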
Conditions: compound 0.316 µM; active compounds read low
Hi there, I'd appreciate the recorded viability, T/C for every entry that follows.

Give its viability, T/C value. Item: COC(=O)c1ccc2c(C(=Nc3ccc(N(C)C(=O)CN4CCN(C)CC4)cc3)c3ccccc3)c(O)[nH]c2c1
69.6% [middle of 5 runs]

Using the record for Cn1nccc1Nc1nccc(-c2cc3c(s2)C(C)(C)N(CCN2CCOCC2)C3=O)n1 , report its viability, T/C.
68.6% [middle of 5 runs]

I would be grateful if you could share the reported viability, T/C for CC(=O)OC12COC1CC(O)C1(C)C(=O)C(O)C3=C(C)C(OC(=O)C(O)C(NC(=O)OC(C)(C)C)c4ccccc4)CC(O)(C(OC(=O)c4ccccc4)C21)C3(C)C (configuration not stated) .
86.2% [middle of 5 runs]

I am curious: what viability, T/C value has been reported for COc1cc2nccc(Oc3ccc(NC(=O)C4(C(=O)Nc5ccc(F)cc5)CC4)cc3)c2cc1OC ?
96.5% [middle of 5 runs]

What does the data say about its viability, T/C? Entry: CCN1CCN(Cc2ccc(Nc3ncc(F)c(-c4cc(F)c5nc(C)n(C(C)C)c5c4)n3)nc2)CC1
65% [middle of 5 runs]

Requested field: viability, T/C. Item: CCNC(=O)CC1N=C(c2ccc(Cl)cc2)c2cc(OC)ccc2-n2c(C)nnc21 (configuration not stated)
72.3% [middle of 5 runs]

Endpoint output: viability, T/C of O=C(c1cc(Cc2n[nH]c(=O)c3ccccc23)ccc1F)N1CCN(C(=O)C2CC2)CC1 . Value?
87.8% [middle of 5 runs]

Tell me the measured viability, T/C of CC1COCCN1c1cc(-c2ccnn2C)c2ccnc(-c3ccn[nH]3)c2n1 (configuration not stated) , please.
20.2% [middle of 5 runs]

viability, T/C for COc1cc(Nc2ncc3c(n2)-c2ccc(Cl)cc2C(c2c(F)cccc2OC)=NC3)ccc1C(=O)O ?
79.4% [middle of 5 runs]

Could you tell me which viability, T/C is on file for CC(C)NCC(C(=O)N1CCN(c2ncnc3c2C(C)CC3O)CC1)c1ccc(Cl)cc1 (configuration not stated) ?
89.6% [middle of 5 runs]

Given the molecule CC1(C)CCC(CN2CCN(c3ccc(C(=O)NS(=O)(=O)c4ccc(NCC5CCOCC5)c([N+](=O)[O-])c4)c(Oc4cnc5[nH]ccc5c4)c3)CC2)=C(c2ccc(Cl)cc2)C1 , what is its reported viability, T/C?
91.4% [middle of 5 runs]

viability, T/C for COc1cc(OC)cc(N(CCNC(C)C)c2ccc3ncc(-c4cnn(C)c4)nc3c2)c1 ?
107% [middle of 5 runs]

###

System: 931267-113-T-J1-PDC KRAS spheroid with HUVEC/MSC, viability
Assay: Anticancer human tumor 931267-113-T-J1-PDC cell line growth inhibition [KRAS2];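 note: compound exposure lasted 7 days before the readout; 100% = DMSO vehicle control viability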
Settings: second compound 0.1 µM; first compound 10 µM; active compounds read low
READOUT: viability, T/C (%)
Provide the reading as a plain figure in %.

Give its viability, T/C value. Item: CC1(C)CCC(CN2CCN(c3ccc(C(=O)NS(=O)(=O)c4ccc(NCC5CCOCC5)c([N+](=O)[O-])c4)c(Oc4cnc5[nH]ccc5c4)c3)CC2)=C(c2ccc(Cl)cc2)C1 + CNCc1ccccc1-c1csc(C(C)Nc2nc(C)nc3cc(OC)c(OC)cc23)c1
4.79

Can you look up the measured viability, T/C of CCNC(=O)CC1N=C(c2ccc(Cl)cc2)c2cc(OC)ccc2-n2c(C)nnc21 (stereo not given) + CC1OCC2(CCN(c3cnc(Sc4ccnc(N)c4Cl)c(N)n3)CC2)C1N for me?
27.6

Query (compound): CC1(C)CCC(CN2CCN(c3ccc(C(=O)NS(=O)(=O)c4ccc(NCC5CCOCC5)c([N+](=O)[O-])c4)c(Oc4cnc5[nH]ccc5c4)c3)CC2)=C(c2ccc(Cl)cc2)C1 + CC1OCC2(CCN(c3cnc(Sc4ccnc(N)c4Cl)c(N)n3)CC2)C1N ; field requested: viability, T/C
8.53

Name the recorded viability, T/C for CC1OCC2(CCN(c3cnc(Sc4ccnc(N)c4Cl)c(N)n3)CC2)C1N (stereo not given) + C=CC(=O)N1CCN(c2nc(OCC3CCCN3C)nc3c2CCN(c2cccc4cccc(C)c24)C3)CC1CC#N .
99.3

Name the reported viability, T/C value associated with the compound COc1cc2nccc(Oc3ccc(NC(=O)C4(C(=O)Nc5ccc(F)cc5)CC4)cc3)c2cc1OC + CNCc1ccccc1-c1csc(C(C)Nc2nc(C)nc3cc(OC)c(OC)cc23)c1
48.1

viability, T/C lookup needed for CC1OCC2(CCN(c3cnc(Sc4ccnc(N)c4Cl)c(N)n3)CC2)C1N (stereo not given) + COc1cc2nc(C)nc(NC(C)c3cc(N)cc(C(F)(F)F)c3)c2cc1OC1CCOC1 , thanks.
90.7

Dear colleague, I am looking for the recorded viability, T/C of the following compound: COc1cc2nccc(Oc3ccc(NC(=O)C4(C(=O)Nc5ccc(F)cc5)CC4)cc3)c2cc1OC + CC1OCC2(CCN(c3cnc(Sc4ccnc(N)c4Cl)c(N)n3)CC2)C1N
66.6

Suppose we examine the compound O=C(c1cc(Cc2n[nH]c(=O)c3ccccc23)ccc1F)N1CCN(C(=O)C2CC2)CC1 + COc1cc2nc(C)nc(NC(C)c3cc(N)cc(C(F)(F)F)c3)c2cc1OC1CCOC1 ; what viability, T/C value has been reported?
113

Requested field: viability, T/C. Item: COC(=O)c1ccc2c(C(=Nc3ccc(N(C)C(=O)CN4CCN(C)CC4)cc3)c3ccccc3)c(O)[nH]c2c1 + C=CC(=O)N1CCN(c2nc(OCC3CCCN3C)nc3c2CCN(c2cccc4cccc(C)c24)C3)CC1CC#N
0.38

Dear colleague, I am looking for the recorded viability, T/C of the following compound: Cn1nccc1Nc1nccc(-c2cc3c(s2)C(C)(C)N(CCN2CCOCC2)C3=O)n1 + CNCc1ccccc1-c1csc(C(C)Nc2nc(C)nc3cc(OC)c(OC)cc23)c1
2.96

###

Tested on: 931267-113-T-J1-PDC KRAS spheroid with HUVEC/MSC, viability
Assay: Anticancer human tumor 931267-113-T-J1-PDC cell line growth inhibition [KRAS2];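 note: compound exposure lasted 7 days before the readout; 100% = DMSO vehicle control viability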
Details: second compound 0.0316 µM; first compound 1 µM; active compounds read low
Please respond with reported viability, T/C for every item in the list.

Record request: viability, T/C value, item CC(C)NCC(C(=O)N1CCN(c2ncnc3c2C(C)CC3O)CC1)c1ccc(Cl)cc1 (centres undefined) + C=CC(=O)N1CCN(c2nc(OCC3CCCN3C)nc3c2CCN(c2cccc4cccc(C)c24)C3)CC1CC#N
79.8%

What value of measured viability, T/C is listed for COc1cc2nccc(Oc3ccc(NC(=O)C4(C(=O)Nc5ccc(F)cc5)CC4)cc3)c2cc1OC + C=CC(=O)N1CCN(c2nc(OCC3CCCN3C)nc3c2CCN(c2cccc4cccc(C)c24)C3)CC1CC#N ?
98.7%

May I ask what viability, T/C has been recorded for O=C(c1cc(Cc2n[nH]c(=O)c3ccccc23)ccc1F)N1CCN(C(=O)C2CC2)CC1 + C=CC(=O)N1CCN(c2nc(OCC3CCCN3C)nc3c2CCN(c2cccc4cccc(C)c24)C3)CC1CC#N ?
109%

State the recorded viability, T/C for this entry: CC(=O)OC12COC1CC(O)C1(C)C(=O)C(O)C3=C(C)C(OC(=O)C(O)C(NC(=O)OC(C)(C)C)c4ccccc4)CC(O)(C(OC(=O)c4ccccc4)C21)C3(C)C (centres undefined) + C=CC(=O)N1CCN(c2nc(OCC3CCCN3C)nc3c2CCN(c2cccc4cccc(C)c24)C3)CC1CC#N
128%
